# Test system: HeLa
# experiment-summary: Antiproliferative activity against human HeLa cells after 24 hrs by MTS assay
# Format: functional, cell-based
pIC50: −log10 of the molar value.
parameter: pIC50

>>> observed_value("N=c1n(CC(=O)N/N=C/c2ccc(F)cc2)c2ccc([N+](=O)[O-])cc2n1CC(=O)N/N=C/c1ccc(F)cc1")
6.93
